Test system: Mycobacterium smegmatis ATCC 19420
assay.method.text: Broth microdilution MIC, M. smegmatis
Type: cell-based
condition.label: Mycolicibacterium smegmatis, ATCC19420, M. smegmatis ATCC 19420; read-out: MIC Mycobacterium smegmatis ATCC 19420
observed.property: MIC (µg/mL)

{"compound": "Cc1ccccc1C(=O)NC(Cc1ccccc1)C(=O)Nc1cccc2nnn(C)c12 (stereo not drawn) [IX-301]", "result.units": "µg/mL", "reported": 0.39}
{"compound": "O=C(NC(Cc1ccccc1)C(=O)Nc1cccc2nc[nH]c12)c1ccccc1F (stereo not drawn) [IX-280]", "result.units": "µg/mL", "reported": 1.56}
{"compound": "O=C(NC(Cc1ccccc1)C(=O)Nc1ccccc1N1CCOCC1)c1ccccc1F (stereo not drawn) [IX-152]", "result.units": "µg/mL", "reported": 0.073}
{"compound": "Cc1ccccc1C(=O)NC(Cc1ccccc1)C(=O)Nc1cccc2c1cnn2C (stereo not drawn) [IX-297]", "result.units": "µg/mL", "reported": 0.78}
{"compound": "O=C(NC(Cc1ccc(O)cc1)C(=O)Nc1cc(F)ccc1N1CCNCC1)c1ccccc1 (stereo not drawn) [IX-246]", "result.units": "µg/mL", "reported": 0.195}
{"compound": "O=C(NC(Cc1ccccc1)C(=O)Nc1ccccc1OC(F)F)c1ccccc1Cl (stereo not drawn) [IX-119]", "result.units": "µg/mL", "reported": 0.39}
{"compound": "CCc1cccc(NC(=O)C(Cc2ccccc2)NC(=O)c2ccccc2)c1C (stereo not drawn) [I-116]", "result.units": "µg/mL", "reported": 0.78}
{"compound": "Cc1ccccc1C(=O)NC(Cc1ccccc1)C(=O)Nc1cccc2cnccc12 (stereo not drawn) [IX-69]", "result.units": "µg/mL", "reported": 0.39}
{"compound": "Cc1c(NC(=O)C(Cc2ccccc2)NC(=O)c2ccccc2)cccc1OC(C)C (stereo not drawn) [I-51]", "result.units": "µg/mL", "reported": 1.56}

---

System: Mycobacterium smegmatis ATCC 19420
assay.method.text: Broth microdilution MIC, M. smegmatis
Format: cell-based
condition.label: Mycolicibacterium smegmatis, ATCC19420, M. smegmatis ATCC 19420; read-out: MIC Mycobacterium smegmatis ATCC 19420
Source text: MICs in Mycobacterium smegmatis ATCC 19420 and Mycobacterium smegmatis ATCC 19420 derivatives were quantified using broth microdilution assays as described [Clinical and Laboratory Standards Institute (CLSI/NCCLS) (2009) Methods for Dilution Antimicrobial Susceptibility Tests for Bacteria That Grow Aerobically; Approved Standard, Eighth Edition. CLIS Document M07-A8 (CLIS, Wayne Pa.)].
# y = MIC below 0.8 µg/mL (exclusive); n = MIC at/above 0.8 µg/mL

{"molecule": "O=C(NC(Cc1ccccc1)C(=O)Nc1ccccc1N1CCNCC1)c1ccccc1F (stereo not shown) [IX-211]", "class.label": "y"}
{"molecule": "O=C(NC(Cc1ccccc1)C(=O)Nc1cccc2ncccc12)c1cccs1 (stereo not shown) [IX-85]", "class.label": "y"}
{"molecule": "Cc1c(NC(=O)C(Cc2ccccc2)NC(=O)c2ccccc2)cccc1-n1cncn1 (stereo not shown) [I-204]", "class.label": "n"}
{"molecule": "CCOc1cccc(C(=O)NC(Cc2ccccc2)C(=O)Nc2ccccc2C)c1 (stereo not shown) [I-37]", "class.label": "n"}
{"molecule": "Cc1ccccc1NC(=O)C(Cc1ccccc1)NC(=O)c1cccnc1 (stereo not shown) [II-13]", "class.label": "n"}
{"molecule": "O=C(NC(Cc1ccc(O)cc1)C(=O)Nc1cccc2cnccc12)c1cccs1 (stereo not shown) [IX-33]", "class.label": "y"}
{"molecule": "Cc1ccccc1NC(=O)C(Cc1ccccc1)NC(=O)c1ccccc1F (stereo not shown) [I-80]", "class.label": "y"}
{"molecule": "O=C(NC(Cc1ccccc1)C(=O)Nc1cccc2c1OCCO2)c1cccc2[nH]ccc12 (stereo not shown) [IX-45]", "class.label": "y"}
{"molecule": "Cc1ccccc1NC(=O)C(Cc1ccccc1)NC(=O)c1ccccc1C (stereo not shown) [I-112]", "class.label": "y"}
{"molecule": "O=C(NC(Cc1ccc(O)cc1)C(=O)Nc1cccc2c1CCC2)c1ccccc1 (stereo not shown) [IX-14]", "class.label": "y"}
{"molecule": "O=C(NC(Cc1ccccc1)C(=O)Nc1cccc2cnccc12)c1ccccc1F (stereo not shown) [IX-57]", "class.label": "y"}
{"molecule": "O=C(NC(Cc1ccc(O)cc1)C(=O)Nc1cccc2c1CCCC2)c1ccccc1 (stereo not shown) [IX-6]", "class.label": "n"}
{"molecule": "COc1ccc(F)cc1NC(=O)C(Cc1ccccc1)NC(=O)c1ccccc1C (stereo not shown) [IX-277]", "class.label": "y"}
{"molecule": "Cc1ccccc1C(=O)NC(Cc1ccccc1)C(=O)Nc1cccc2c1OCCO2 (stereo not shown) [IX-71]", "class.label": "y"}
{"molecule": "Cc1ccc(Cl)cc1NC(=O)C(Cc1ccccc1)NC(=O)c1ccccc1C (stereo not shown) [IX-67]", "class.label": "y"}
{"molecule": "Cc1ccccc1C(=O)NC(Cc1ccccc1)C(=O)Nc1cccc2ncccc12 (stereo not shown) [IX-70]", "class.label": "y"}
{"molecule": "O=C(NC(Cc1ccccc1)C(=O)Nc1ccccc1N1CCNCC1)c1ccccc1 (stereo not shown) [IX-150]", "class.label": "y"}
{"molecule": "COc1ccc(F)cc1NC(=O)C(Cc1ccc(O)cc1)NC(=O)c1ccccc1 (stereo not shown) [IX-203]", "class.label": "y"}
{"molecule": "O=C(NC(Cc1ccccc1)C(=O)Nc1cc(F)ccc1N1CCN(CCO)CC1)c1cccs1 (stereo not shown) [IX-247]", "class.label": "y"}
{"molecule": "CC(=O)Oc1ccc(CC(NC(=O)c2cccs2)C(=O)Nc2ccccc2N2CCOCC2)cc1 (stereo not shown) [IX-182]", "class.label": "y"}
{"molecule": "Cc1ccccc1NC(=O)C(Cc1ccc(N2CCOCC2)cc1)NC(=O)c1ccccc1 (stereo not shown) [I-188]", "class.label": "n"}
{"molecule": "O=C(NC(Cc1ccccc1)C(=O)Nc1cc(F)ccc1N1CCNCC1)c1ccccc1F (racemic) [IX-214]", "class.label": "y"}
{"molecule": "O=C(NC(Cc1ccccc1)C(=O)Nc1cccc2cnccc12)c1cccs1 (stereo not shown) [IX-30]", "class.label": "y"}
{"molecule": "COc1ccccc1NC(=O)C(Cc1ccc(O)cc1)NC(=O)c1ccccc1 (stereo not shown) [IX-26]", "class.label": "n"}
{"molecule": "Cc1ccccc1NC(=O)C(Cc1ccc(O)cc1)NC(=O)c1ccccc1F (stereo not shown) [IX-54]", "class.label": "n"}
{"molecule": "COc1ccc(F)cc1NC(=O)C(Cc1ccc(O)cc1)NC(=O)c1cccs1 (stereo not shown) [IX-206]", "class.label": "y"}
{"molecule": "NC1CCN(c2ccc(F)cc2NC(=O)C(Cc2ccccc2)NC(=O)c2ccccc2F)CC1 (stereo not shown) [IX-312]", "class.label": "y"}
{"molecule": "O=C(NC(Cc1ccccc1)C(=O)Nc1cccc2c1OCO2)c1ccccc1F (stereo not shown) [IX-99]", "class.label": "y"}
{"molecule": "CC(=O)N1CCN(c2ccccc2NC(=O)C(Cc2ccccc2)NC(=O)c2ccccc2)CC1 (stereo not shown) [IX-236]", "class.label": "y"}
{"molecule": "Cc1ccccc1NC(=O)C(Cc1ccc(O)cc1)NC(=O)c1ccccc1Cl (stereo not shown) [IX-60]", "class.label": "n"}

Values compiled from patent US9919998B2.
